Test system: HCC-2998 colon
Experiment: NCI tumour cell line growth inhibition, 48 h
// values below are reported TGI
The response must be a number in µM with no trailing unit.

>  <compound_structure_string>
CCCCCC(=O)OCC(=O)[C@H]1[C@H](C)C[C@H]2[C@@H]3C[C@H](F)C4=C/C(=N/OC(=O)c5cccc6c(=O)c7ccccc7[nH]c56)C=C[C@]4(C)[C@H]3[C@@H](O)C[C@@]21C

>  <measure_unit>
µM

>  <TGI>
82.4

$$$$
>  <compound_structure_string>
CN(C)CCNC(=O)c1cccc2nc3c4ccccc4c4ccccc4c3nc12

>  <measure_unit>
µM

>  <TGI>
11.5

$$$$

Consider the molecule shown here: `COc1cccc(-c2cccc(SC)n2)n1` What is its recorded TGI?
75.5

Consider the molecule shown here: `Oc1ccc(Br)cc1/C=N/NC(=S)NC12CC3CC(CC(C3)C1)C2` What is its recorded TGI?
4.6

====

Tested on: 786-0 renal
Test: NCI tumour cell line growth inhibition, 48 h
// values below are reported GI50

In the examples that follow, each entry is paired with its recorded GI50.
>  <compound_structure_string>
CCOC(=O)c1cc2cc(NC(=O)c3cc4cc([N+](=O)[O-])ccc4n3C)ccc2n1C

>  <GI50>
17.6 µM

$$$$
>  <compound_structure_string>
COc1ccc2c(c1OC)-c1c(c3ccc([N+](=O)[O-])cc3c(=O)n1CCCN=[N+]=[N-])C2=O

>  <GI50>
3.44 µM

$$$$
>  <compound_structure_string>
CCN(Cc1nc2cc(C(F)(F)F)ccc2nc1-c1ccccc1)c1ccc(OC)c(OC)c1

>  <GI50>
15.7 µM

$$$$
>  <compound_structure_string>
CCOC(=O)c1c(C)n(CC(C)C)c2c1cc1oc(=O)c(=O)n3cnc2c13

>  <GI50>
20.1 µM

$$$$
>  <compound_structure_string>
COC(=O)[C@@H](Cc1c[nH]c2ccccc12)NC(=O)/C=C/c1ccccc1

>  <GI50>
3.96 µM

$$$$

Consider the compound shown here: `COc1ccc2[nH]c(-c3cccc(N(C)C)c3)cc(=O)c2c1` What is its recorded GI50?
0.539 µM

Consider the compound shown here: `O=C(Nc1cccc2cccnc12)c1ccc(N2C(=O)[C@@H]3[C@H](C2=O)[C@@H]2C=C[C@H]3C2)cc1` What is its recorded GI50?
> 74.2 µM

Consider the compound shown here: `COc1cc(-c2nn(C(=O)NS(=O)(=O)c3ccc(C)cc3)cc2-c2ccncc2)ccc1Cl` What is its recorded GI50?
3.47 µM

Consider the compound shown here: `COC(=O)c1c2c(c(C)[n+]([O-])c1C)C(=O)C(NCc1cccc(OC)c1)=CC2=O` What is its recorded GI50?
3.6 µM

====

Tested on: EKVX NSCLC
Assay: NCI tumour cell line growth inhibition, 48 h
// values below are reported GI50

In the examples that follow, each entry is paired with its recorded GI50.
>  <compound>
CCOC(=O)c1cc2cc(NC(=O)c3cc4cc([N+](=O)[O-])ccc4n3C)ccc2n1C

>  <GI50>
20 µM

$$$$
>  <compound>
CCCC[P+](c1ccccc1)(c1ccccc1)c1ccccc1

>  <GI50>
1 µM

$$$$
>  <compound>
CC(F)(F)c1cc(F)ccc1-c1sc2cc(O)ccc2c1Oc1ccc(/C=C/C(=O)O)cc1

>  <GI50>
10.6 µM

$$$$
>  <compound>
CS(=O)c1ccc(-c2nc(-c3ccc(F)cc3)c(-c3ccncc3)[nH]2)cc1 (stereo not given)

>  <GI50>
49 µM

$$$$
>  <compound>
CN(C)CCOc1nc2c3cccnc3cc(-c3cccc(Cl)c3)c2c2ncccc12

>  <GI50>
1.7 µM

$$$$

Consider the compound shown here: COc1ccc(C2C(c3ccccc3)C(=O)N2c2cc(OC)c(OC)c(OC)c2)cc1I (stereo not given) What is its recorded GI50?
0.658 µM

Consider the compound shown here: `COC(=O)c1c2c(c(C)[n+]([O-])c1C)C(=O)C(NCc1cccc(OC)c1)=CC2=O` What is its recorded GI50?
2.11 µM

Consider the compound shown here: CC(C)=CCC/C(C)=C/CC/C(=C/COP(=O)(OCc1ccc([N+](=O)[O-])o1)N(C)CCCCCl)CC=C(C)C (stereo not given) What is its recorded GI50?
3.73 µM

Consider the compound shown here: `COc1ccc2c(c1OC)-c1c(c3ccc([N+](=O)[O-])cc3c(=O)n1CCCN=[N+]=[N-])C2=O` What is its recorded GI50?
> 100 µM

Consider the compound shown here: `O=C(NCCN1CCOCC1)Nc1ccc(-c2cc3c(Nc4ccc(Oc5cccc(C(F)(F)F)c5)c(Cl)c4)ncnc3s2)cc1` What is its recorded GI50?
2.27 µM

Consider the compound shown here: `COc1cccc2c1cc([N+](=O)[O-])c1c(C(=O)O)cc3c(c12)OCO3` What is its recorded GI50?
26.6 µM

Consider the compound shown here: CC1CCC2C(C)C3C(CC4C5CC=C6CC(OC7OC(CO)C(O)C(OC8OC(CO)C(O)C(O)C8O)C7OC7OC(C)C(O)C(O)C7O)CCC6(C)C5CCC43C)N2C1 (stereo not given) What is its recorded GI50?
> 2.5 µg/mL
